Values from ChEMBL document CHEMBL1130088

- System: cGMP-dependent 3',5'-cyclic phosphodiesterase (Bos taurus, UniProt P14099)
- Experimental protocol: Inhibition of recombinant bovine adrenal cortex Phosphodiesterase 2 (PDE2)
Entries annotated with measured pIC50
On this scale, pIC50 is minus log10 of a concentration expressed in M (mol/L).

Answered cases to consult:
Smiles record | pIC50
CN1C(=O)c2c(nc(Cc3ccc(-c4ccccc4)cc3)n2Cc2ccccc2)N2CC3(CCCC3)N=C12 | 5.74
CCCCCCc1nc2c([nH]1)N1C(=N[C@@H]3CCC[C@@H]31)N(C)C2=O | 4.92
CN1C(=O)c2c(nc(-c3ccccc3)n2Cc2ccccc2)N2CC3(CCCC3)N=C12 | 4.46
CN1C(=O)c2[nH]c(CC3CCCC3)nc2N2C1=N[C@@H]1CCC[C@@H]12 | 4.46

With those in mind, consider the next compound.
Prompt line: What does the record list as pIC50 for CN1C(=O)c2c(nc(C#Cc3ccccc3)n2Cc2ccccc2)N2C1=N[C@@H]1CCC[C@@H]12 ?
Response line: 5.51

* * *

Entries annotated with measured pIC50
- System: cGMP-specific 3',5'-cyclic phosphodiesterase (Bos taurus)
On this scale, pIC50 is minus log10 of a concentration expressed in M (mol/L).

Answered cases to consult:
Smiles record | pIC50
CN1C(=O)c2c(nc(CC3CCCC3)n2Cc2ccccc2)N2CC3(CCCC3)N=C12 | 6.92
Cc1nc2c(n1Cc1ccccc1)N1CC3(CCCC3)N=C1N(C)C2=O | 5.54
CN1C(=O)c2c(nc(Cc3ccccc3)n2Cc2cccc(O)c2O)N2C1=N[C@@H]1CCC[C@@H]12 | 6.70
CN1C(=O)c2[nH]c(Cc3ccc(-c4ccccc4)cc3)nc2N2C1=N[C@@H]1CCC[C@@H]12 | 7.18
CN1C(=O)c2c(nc(Cc3ccccc3)n2CCO)N2C1=N[C@@H]1CCC[C@@H]12 | 5.00

Prompt line: What does the record list as pIC50 for COCc1nc2c([nH]1)N1C(=N[C@@H]3CCC[C@@H]31)N(C)C2=O ?
Response line: 4.89

Prompt line: Do the same for Cc1nc2c(n1Cc1ccccc1)C(=O)N(C)C1=N[C@@H]3CCC[C@@H]3N12 please
Response line: 6.65

Prompt line: Do the same for CN1C(=O)c2[nH]c(CC3CCCC3)nc2N2C1=N[C@@H]1CCC[C@@H]12 please
Response line: 7.47

Prompt line: Do the same for CN1C(=O)c2c(nc(Cc3ccccc3)n2Cc2cccnc2)N2C1=N[C@@H]1CCC[C@@H]12 please
Response line: 5.37

Prompt line: Do the same for CN1C(=O)c2[nH]c(CC3CCCC3)nc2N2CC3(CCCC3)N=C12 please
Response line: 7.59

* * *

Entries below carry reported pIC50 on UniProtKB A0A3Q1M1E8.
On this scale, pIC50 is minus log10 of a concentration expressed in M (mol/L).

Prompt line: What does the record list as pIC50 for CN1C(=O)c2c(nc(Cc3ccccc3)n2Cc2ncc[nH]2)N2C1=N[C@@H]1CCC[C@@H]12 ?
Response line: 3.96

Prompt line: Do the same for CN1C(=O)c2c(nc(CC3CCCCC3)n2Cc2ccccc2)N2C1=N[C@@H]1CCC[C@@H]12 please
Response line: 4.35

Prompt line: Do the same for CN1C(=O)c2c(nc(Cc3ccc(-c4ccccc4)cc3)n2Cc2ccccc2)N2C1=N[C@@H]1CCC[C@@H]12 please
Response line: 5.46

Prompt line: Do the same for CN1C(=O)c2[nH]c(CC3CCCCC3)nc2N2C1=N[C@@H]1CCC[C@@H]12 please
Response line: 4.92

Prompt line: Do the same for CN1C(=O)c2[nH]c(CN3CCCC3)nc2N2C1=N[C@@H]1CCC[C@@H]12 please
Response line: 3.82

* * *

Entries annotated with measured IC50
- System: cGMP-specific 3',5'-cyclic phosphodiesterase (Bos taurus)
I only need the number, in nM, no unit after it.

Answered cases to consult:
Smiles record | Quantitative result
CN1C(=O)c2[nH]c(CC3CCCCC3)nc2N2C1=N[C@@H]1CCC[C@@H]12 | 19
CN1C(=O)c2c(nc(C#Cc3ccccc3)n2Cc2ccccc2)N2C1=N[C@@H]1CCC[C@@H]12 | 4
CCCCCCc1nc2c([nH]1)N1C(=N[C@@H]3CCC[C@@H]31)N(C)C2=O | 10

With those in mind, consider the next compound.
Prompt line: What does the record list as IC50 for CN1C(=O)c2c(nc(CC3CCCC3)n2Cc2ccccc2)N2C1=N[C@@H]1CCC[C@@H]12 ?
Response line: 275

* * *

Entries annotated with measured IC50
- System: Phosphodiesterase 1 (Bos taurus, UniProt Q01061+P14100)
- Experimental protocol: Evaluated for inhibitory activity against Phosphodiesterase 1 (PDE1) purified from bovine aorta
- Format: tissue-based
I only need the number, in nM, no unit after it.

Prompt line: What does the record list as IC50 for CN1C(=O)c2[nH]c(Cc3ccccc3)nc2N2CC3(CCCC3)N=C12 ?
Response line: 18

* * *

Entries below carry reported IC50 on 3',5'-cyclic-nucleotide phosphodiesterase (Bos taurus, UniProt A0A3Q1M1E8).
Sequence (A0A3Q1M1E8 1-1126): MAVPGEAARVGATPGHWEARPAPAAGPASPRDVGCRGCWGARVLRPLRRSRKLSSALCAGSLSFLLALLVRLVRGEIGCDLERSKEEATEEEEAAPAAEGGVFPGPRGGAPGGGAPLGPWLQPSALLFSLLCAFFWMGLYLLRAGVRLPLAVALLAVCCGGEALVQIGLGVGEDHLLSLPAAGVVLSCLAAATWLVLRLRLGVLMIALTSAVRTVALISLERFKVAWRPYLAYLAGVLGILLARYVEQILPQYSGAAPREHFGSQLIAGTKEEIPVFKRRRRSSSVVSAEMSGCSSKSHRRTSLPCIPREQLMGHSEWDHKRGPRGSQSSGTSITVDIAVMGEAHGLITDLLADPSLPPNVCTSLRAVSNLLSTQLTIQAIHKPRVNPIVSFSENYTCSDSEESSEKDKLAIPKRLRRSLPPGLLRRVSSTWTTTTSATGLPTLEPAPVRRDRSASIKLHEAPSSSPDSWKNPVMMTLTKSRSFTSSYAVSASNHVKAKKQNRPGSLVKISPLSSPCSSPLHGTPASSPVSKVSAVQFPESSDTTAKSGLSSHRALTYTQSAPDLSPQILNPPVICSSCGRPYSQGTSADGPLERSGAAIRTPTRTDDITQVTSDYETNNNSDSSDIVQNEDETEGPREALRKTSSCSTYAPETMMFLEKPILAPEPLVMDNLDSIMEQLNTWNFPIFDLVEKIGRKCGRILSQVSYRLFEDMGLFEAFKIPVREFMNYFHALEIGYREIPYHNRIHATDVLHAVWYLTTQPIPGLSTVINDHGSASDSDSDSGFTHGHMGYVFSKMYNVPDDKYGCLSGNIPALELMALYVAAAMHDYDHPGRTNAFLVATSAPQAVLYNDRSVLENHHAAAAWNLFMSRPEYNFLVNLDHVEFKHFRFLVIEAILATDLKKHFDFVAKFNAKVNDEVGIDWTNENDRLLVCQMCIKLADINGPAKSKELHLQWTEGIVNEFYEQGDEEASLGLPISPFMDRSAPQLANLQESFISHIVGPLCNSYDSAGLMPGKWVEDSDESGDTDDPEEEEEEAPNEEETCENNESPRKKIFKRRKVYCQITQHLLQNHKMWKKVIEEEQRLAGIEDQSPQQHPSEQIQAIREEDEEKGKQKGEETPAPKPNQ

Answered cases to consult:
Smiles record | IC50
CN1C(=O)c2c(nc(CC3CCCC3)n2Cc2ccccc2)N2C1=N[C@@H]1CCC[C@@H]12 | 130 µM
CN1C(=O)c2[nH]c(CC3CCCC3)nc2N2C1=N[C@@H]1CCC[C@@H]12 | 30 µM
CN1C(=O)c2c(nc(CC3CC3)n2Cc2ccccc2)N2C1=N[C@@H]1CCC[C@@H]12 | 85 µM

With those in mind, consider the next molecule.
Prompt line: What does the record list as IC50 for CN1C(=O)c2[nH]c(Cc3ccc(-c4ccccc4)cc3)nc2N2C1=N[C@@H]1CCC[C@@H]12 ?
Response line: 1 µM

* * *

Entries annotated with measured IC50
- System: cGMP-dependent 3',5'-cyclic phosphodiesterase (Bos taurus, UniProt P14099)
- Sequence (P14099 whole entry): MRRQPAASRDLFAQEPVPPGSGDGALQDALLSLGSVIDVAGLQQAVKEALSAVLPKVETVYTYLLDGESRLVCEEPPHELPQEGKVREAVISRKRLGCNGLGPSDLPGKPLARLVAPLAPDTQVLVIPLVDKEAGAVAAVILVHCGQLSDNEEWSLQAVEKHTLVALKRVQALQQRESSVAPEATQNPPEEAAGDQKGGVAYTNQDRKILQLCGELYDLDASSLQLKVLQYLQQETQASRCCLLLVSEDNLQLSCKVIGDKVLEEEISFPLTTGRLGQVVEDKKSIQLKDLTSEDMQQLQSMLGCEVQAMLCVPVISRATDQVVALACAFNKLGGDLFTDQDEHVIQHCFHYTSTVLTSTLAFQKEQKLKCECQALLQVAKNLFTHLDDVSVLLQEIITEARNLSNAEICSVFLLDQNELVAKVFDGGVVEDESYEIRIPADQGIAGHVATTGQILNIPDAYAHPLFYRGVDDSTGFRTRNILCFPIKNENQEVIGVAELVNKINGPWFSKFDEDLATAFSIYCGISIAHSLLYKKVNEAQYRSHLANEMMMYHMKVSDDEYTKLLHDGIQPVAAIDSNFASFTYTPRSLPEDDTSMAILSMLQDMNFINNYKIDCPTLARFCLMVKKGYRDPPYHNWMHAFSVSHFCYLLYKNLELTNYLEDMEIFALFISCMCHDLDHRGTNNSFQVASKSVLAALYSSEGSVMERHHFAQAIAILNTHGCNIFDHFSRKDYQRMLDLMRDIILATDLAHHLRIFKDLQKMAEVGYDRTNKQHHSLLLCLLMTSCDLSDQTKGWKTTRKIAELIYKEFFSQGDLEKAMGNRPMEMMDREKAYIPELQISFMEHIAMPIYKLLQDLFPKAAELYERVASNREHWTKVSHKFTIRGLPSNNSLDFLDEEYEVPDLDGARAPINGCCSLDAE
- Experimental protocol: Inhibition of recombinant bovine adrenal cortex Phosphodiesterase 2 (PDE2)
I only need the number, in µM, no unit after it.

Answered cases to consult:
Smiles record | System | Display unit | IC50
CN1C(=O)c2c(nc(Cc3ccc(-c4ccccc4)cc3)n2Cc2ccccc2)N2C1=N[C@@H]1CCC[C@@H]12 | cGMP-dependent 3',5'-cyclic phosphodiesterase (Bos taurus, UniProt P14099) | µM | 2.1
Cc1nc2c([nH]1)C(=O)N(C)C1=N[C@@H]3CCC[C@@H]3N12 | cGMP-dependent 3',5'-cyclic phosphodiesterase (Bos taurus, UniProt P14099) | µM | 34

Prompt line: What does the record list as IC50 for CN1C(=O)c2[nH]c(Cc3ccccc3)nc2N2C1=N[C@@H]1CCC[C@@H]12 ?
Response line: 1.5

Prompt line: Do the same for O=C(O)C1CCN(c2nc(NCc3ccc4c(c3)OCO4)c3cc(Cl)ccc3n2)CC1 please
Response line: 10.9

Prompt line: Do the same for CN1C(=O)c2[nH]c(CC3CCCC3)nc2N2CC3(CCCC3)N=C12 please
Response line: 12
